# Measurement target: Recombinant Human Vimentin Protein (Homo sapiens, UniProt P08670)
# Construct: purchased Novus Biologicals, LLC/R&D Systems 2105-VI-100
# Sequence (P08670 whole entry): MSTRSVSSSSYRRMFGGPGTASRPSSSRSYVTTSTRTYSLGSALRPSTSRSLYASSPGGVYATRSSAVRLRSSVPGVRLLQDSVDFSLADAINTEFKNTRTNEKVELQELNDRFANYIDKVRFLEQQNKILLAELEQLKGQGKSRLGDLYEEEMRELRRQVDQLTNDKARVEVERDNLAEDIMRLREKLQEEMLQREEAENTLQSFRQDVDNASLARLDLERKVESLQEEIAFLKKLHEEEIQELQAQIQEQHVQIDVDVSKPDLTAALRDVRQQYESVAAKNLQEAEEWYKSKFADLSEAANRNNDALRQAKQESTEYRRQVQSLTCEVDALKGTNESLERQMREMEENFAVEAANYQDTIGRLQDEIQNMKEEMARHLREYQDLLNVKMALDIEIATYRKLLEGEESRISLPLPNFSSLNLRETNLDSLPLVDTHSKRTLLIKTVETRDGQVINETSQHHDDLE
# Test description: biochemical
# Format: binding
Where no end group is shown, it is not given here.
Measured metric: Kd (µM)
Quick reminder: number only, in µM, skip the unit.

Enquiry: Requested read-out: Kd. Entry: VGFPV [SMRwt, ^66Val-Gly-Phe-Pro-Val^70]
Return: 6.63

---

# Measurement target: Recombinant Human GRP75/HSPA9B/Mortalin His Protein (Homo sapiens, UniProt P38646)
# Construct: His; purchased Novus Biologicals, LLC/R&D Systems NBC1-18380
# Sequence (P38646 47-679): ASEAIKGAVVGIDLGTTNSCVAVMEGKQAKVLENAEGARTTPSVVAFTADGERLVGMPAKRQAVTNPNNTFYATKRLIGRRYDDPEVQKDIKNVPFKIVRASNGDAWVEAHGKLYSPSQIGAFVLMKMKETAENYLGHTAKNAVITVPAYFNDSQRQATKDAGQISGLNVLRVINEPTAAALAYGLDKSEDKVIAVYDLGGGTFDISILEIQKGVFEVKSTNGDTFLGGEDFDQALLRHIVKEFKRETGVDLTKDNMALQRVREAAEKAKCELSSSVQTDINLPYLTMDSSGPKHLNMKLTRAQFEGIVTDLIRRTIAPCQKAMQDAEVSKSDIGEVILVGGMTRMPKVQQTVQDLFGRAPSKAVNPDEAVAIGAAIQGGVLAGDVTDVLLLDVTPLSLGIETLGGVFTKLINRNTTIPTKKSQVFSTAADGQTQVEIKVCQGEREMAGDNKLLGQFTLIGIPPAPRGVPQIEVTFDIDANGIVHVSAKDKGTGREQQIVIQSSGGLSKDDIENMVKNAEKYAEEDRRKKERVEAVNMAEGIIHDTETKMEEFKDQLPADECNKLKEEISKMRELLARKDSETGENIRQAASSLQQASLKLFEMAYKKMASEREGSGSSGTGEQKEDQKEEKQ
# Test description: biochemical
# Assay type: binding
Where no end group is shown, it is not given here.
Measured metric: Kd (µM)
Quick reminder: number only, in µM, skip the unit.

Enquiry: Requested read-out: Kd. Entry: VGFPV [SMRwt, ^66Val-Gly-Phe-Pro-Val^70]
Return: 20.7

The values you see were collected from paper PMC12469269.
